Assay: Cytotoxicity, resazurin reduction assay, HepG2
Format: cell-based, human
Conditions: human
REPORTED PROPERTY: log10 CC50 at 48 h (log10 of the value in µM)

# COMPOUND, log10 CC50 at 48 h
measured = [
    ("COc1cc(OC)c(CCNC(=O)c2cn3cc(-c4cc(OCC#N)ccc4OC)nc3s2)c(OC)c1", 0.30),
    ("COc1nc(/C=C/c2nc3n(n2)CCCC3c2ccccc2C(F)(F)F)ccc1-n1cnc(C)c1 (stereo not shown)", 0.37),
    ("COc1ccc(C(=O)N2CCC(C)(C)c3cc(C4=NNC(=O)SC4C)ccc32)cc1OC (stereo not shown)", 1.52),
    ("COc1ccc(OCC(N)=O)cc1-c1cn2cc(C(=O)NCCc3c(OC)cccc3OC)sc2n1", 0.97),
    ("CNS(=O)(=O)c1ccccc1Nc1nc(Nc2ccc(N3CCOCC3)cc2OC)ncc1Br", 1.34),
]

This collection of values is drawn from paper PMC12622802.
